meta.source: patent US11274115B2

- target.system: human TLR7 (Homo sapiens)
- Construct: host or cells: HEK293
- Sequence (Q9NYK1 27-1049): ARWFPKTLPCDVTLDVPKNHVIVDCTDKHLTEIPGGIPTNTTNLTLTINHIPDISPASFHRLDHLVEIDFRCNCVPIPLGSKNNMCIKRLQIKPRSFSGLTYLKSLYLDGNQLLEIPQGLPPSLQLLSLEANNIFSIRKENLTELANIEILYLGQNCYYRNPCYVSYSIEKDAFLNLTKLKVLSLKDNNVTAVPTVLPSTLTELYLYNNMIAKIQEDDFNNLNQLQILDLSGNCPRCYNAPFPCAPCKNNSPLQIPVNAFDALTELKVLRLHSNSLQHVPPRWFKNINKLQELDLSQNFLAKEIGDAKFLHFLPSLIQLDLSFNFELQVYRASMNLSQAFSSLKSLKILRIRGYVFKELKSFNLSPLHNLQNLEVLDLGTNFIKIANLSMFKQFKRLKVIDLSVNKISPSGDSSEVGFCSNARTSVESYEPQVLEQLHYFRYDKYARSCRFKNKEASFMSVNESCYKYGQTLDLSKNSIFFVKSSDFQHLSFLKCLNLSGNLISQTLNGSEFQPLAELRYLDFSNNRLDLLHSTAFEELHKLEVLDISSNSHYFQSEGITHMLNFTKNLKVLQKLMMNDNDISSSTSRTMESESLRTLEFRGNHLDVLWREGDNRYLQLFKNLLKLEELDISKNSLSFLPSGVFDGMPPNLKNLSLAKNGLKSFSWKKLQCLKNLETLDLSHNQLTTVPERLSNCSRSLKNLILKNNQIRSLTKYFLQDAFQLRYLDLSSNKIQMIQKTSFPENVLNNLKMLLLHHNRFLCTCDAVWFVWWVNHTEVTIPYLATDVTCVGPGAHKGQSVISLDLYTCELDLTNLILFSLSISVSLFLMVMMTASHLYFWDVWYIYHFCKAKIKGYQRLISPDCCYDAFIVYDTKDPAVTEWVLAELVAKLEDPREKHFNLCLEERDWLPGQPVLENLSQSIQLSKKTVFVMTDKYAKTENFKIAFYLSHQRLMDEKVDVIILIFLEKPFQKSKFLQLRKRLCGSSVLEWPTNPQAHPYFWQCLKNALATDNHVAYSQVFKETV
- experiment: hTLR7 agonist reporter assay in HEK293 cells (NFκB-SEAP)
- Assay type: cell-based
- experimental.context: Table 3; hTLR7 ED50 over hTLR8 ED50
reported.property: hTLR7/8 ratio

{"compound": "CCCCCCCC/C=C\\CCCCCCCC(=O)OC[C@H](COP(=O)(O)OCCCCOc1ccc2c(c1)nc(N)c1nc(CCCC)n(CCO)c12)OC(=O)CCCCCCC/C=C\\CCCCCCCC", "target.system": "human TLR7 (Homo sapiens)", "hTLR7/8 ratio": 1.6}
{"compound": "CCCCc1nc2c(N)nc3cc(OCCO)ccc3c2n1CCO", "target.system": "human TLR7 (Homo sapiens)", "hTLR7/8 ratio": 1.9}
{"compound": "CCCCc1nc2c(N)nc3cc(OCCCCO)ccc3c2n1CCO", "target.system": "human TLR7 (Homo sapiens)", "hTLR7/8 ratio": 0.7}
{"compound": "CCCCCCCC/C=C\\CCCCCCCC(=O)OC[C@H](COP(=O)(O)OCCOCCOCCOc1ccc2c(c1)nc(N)c1nc(CCCC)n(CCO)c12)OC(=O)CCCCCCC/C=C\\CCCCCCCC", "target.system": "human TLR7 (Homo sapiens)", "hTLR7/8 ratio": 1.5}

a: CCCCc1nc2c(N)nc3ccccc3c2n1CCO [Comparative Example 1, reference compound]
b: CCCCCCCC/C=C\CCCCCCCC(=O)OC[C@H](COP(=O)(O)OCCOc1ccc2c(c1)nc(N)c1nc(CCCC)n(CCO)c12)OC(=O)CCCCCCC/C=C\CCCCCCCC
c: CCCCc1nc2c(N)nc3cc(OCCOCCOCCO)ccc3c2n1CCO
Task for the reader: rank each entry by its hTLR7/8 ratio, from the minimum upward. Sort the labels as requested; that list is your answer. c, a, b
(c: 0.8, a: 1.5, b: 6.9)
